System: α2B receptor (Homo sapiens)
Construct: host or cells: LM(tk-) cells, line L-NGC-α2B
Sequence (P18089 1-450): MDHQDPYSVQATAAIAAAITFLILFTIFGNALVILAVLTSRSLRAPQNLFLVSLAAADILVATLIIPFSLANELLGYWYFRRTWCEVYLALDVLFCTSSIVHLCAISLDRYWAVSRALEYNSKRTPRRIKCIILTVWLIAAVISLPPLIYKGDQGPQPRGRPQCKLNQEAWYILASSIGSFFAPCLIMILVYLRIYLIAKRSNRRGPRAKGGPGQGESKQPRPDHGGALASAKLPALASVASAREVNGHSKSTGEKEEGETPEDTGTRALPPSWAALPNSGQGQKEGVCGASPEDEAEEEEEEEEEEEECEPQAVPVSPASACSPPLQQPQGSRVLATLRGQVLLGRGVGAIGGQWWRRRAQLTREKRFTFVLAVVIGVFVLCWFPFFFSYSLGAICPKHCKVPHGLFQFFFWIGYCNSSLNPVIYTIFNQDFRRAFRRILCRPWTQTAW
Assay method text: Competition binding, [3H]rauwolscine, human α2B receptor
Particulars: pKi alpha-2 2b
Listed next: entries and their corresponding Ki.
Supply the numeric figure in nM, leaving out any unit text.

Example entries and their recorded answers appear below.
* CCC1=C(C(=O)NCCCN2CCC(c3ccccc3)(c3ccccc3)CC2)C(c2ccc(N)cc2)C(C(=O)OC)=C(C)N1 (centres unmarked) [Example 114] | 468
* COC(=O)C1=C(C)NC(C)=C(C(=O)NCCCN2CCC(c3ccccc3)(c3ccccc3)CC2)C1c1ccc(I)cc1 (centres unmarked) [Example 13] | 1740
* COC(=O)C1=C(C)NC(C)=C(C(=O)NCCCN2CCC(c3ccccc3)(c3ccccc3)CC2)C1C1CCCCC1 (centres unmarked) [Example 6] | 447
* COC(=O)C1=C(C)NC(C)=C(C(=O)NCCCN2CCC(c3ccccc3)(c3ccccc3)CC2)C1c1ccc(C(=O)OC)cc1 (centres unmarked) [Example 25] | 501

Here is the next item to consider.
Q: Item under review: COC(=O)C1=C(C)NC(C)=C(C(=O)NCCCN2CCC(c3ccccc3)(c3ccccc3)CC2)C1c1ccc(F)cc1 (centres unmarked) [Example 20] . Reported Ki?
A: 1320

Data provenance: patent US6608086B2
